# IC50 listing for each entry below
biological target: IDH2 R140Q (Homo sapiens, UniProt P48735, R140Q); assay: IDH2 R140Q enzymatic assay (cofactor depletion, similar format); type: biochemical; settings: read-out: Enz R140Q

{"columns": ["Compound", "IC50"],
 "data": [
  ["Cn1nccc1Nc1nc(Nc2ccnc(C(F)(F)F)c2)nc(-c2cccc(C(F)(F)F)n2)n1", "0.1 to 1 µM"],
  ["Nc1cccc(-c2nc(NCC3CC3)nc(Nc3cc(F)cc(F)c3)n2)n1", "0.1 to 1 µM"],
  ["CC(C)Nc1nc(Nc2cncc(F)c2)nc(-c2cccc(C(F)(F)F)n2)n1", "1 to 10 µM"],
  ["CC(F)(F)c1cccc(-c2nc(NCC3CC3)nc(Nc3cccc(S(C)(=O)=O)c3)n2)n1", "0.1 to 1 µM"],
  ["CC(C)(C)CNc1nc(Nc2ccnc(C(F)(F)F)c2)nc(-c2cccc(N)n2)n1", "0.1 to 1 µM"],
  ["CC1(Nc2nc(Nc3ccnc(C(F)(F)F)c3)nc(-c3cccc(C(F)(F)F)n3)n2)COC1", "0.1 to 1 µM"],
  ["Nc1ccnc(-c2nc(NCC(F)(F)F)nc(Nc3cc(F)cc(F)c3)n2)n1", "0.1 to 1 µM"],
  ["CC(C)Nc1nc(Nc2ccc(OC(C)C)nc2)nc(-c2ccccc2)n1", "0.1 to 1 µM"],
  ["OC1CCC(Nc2nc(Nc3ccncc3)nc(-c3ccccc3)n2)CC1 (centres unmarked)", "1 to 10 µM"],
  ["FC(F)(F)c1cc(Nc2nc(NC3CC4CCC3O4)nc(-c3cccc(C(F)(F)F)n3)n2)ccn1 (centres unmarked)", "0.1 to 1 µM"],
  ["CC(C)(CO)CNc1nc(Nc2ccnc(C(F)(F)F)c2)nc(-c2cccc(Cl)n2)n1", "0.1 to 1 µM"],
  ["CC(C)Nc1nc(Nc2ccncc2)nc(-c2cccc(O)c2)n1", "< 0.1 µM"],
  ["CC(C)Nc1nc(Nc2ccnc(C(F)(F)F)c2)nc(-c2nccc(C(F)(F)F)n2)n1", "0.1 to 1 µM"],
  ["FC(F)(F)c1cc(Nc2nc(NC3CCOCC3)nc(-c3cccc(C(F)(F)F)n3)n2)ccn1", "0.1 to 1 µM"],
  ["CC(C)Nc1nc(Nc2ccccc2)nc(-c2cccc(N)n2)n1", "0.1 to 1 µM"],
  ["COc1ccc(F)c(-c2nc(Nc3cc(F)cc(F)c3)nc(NC(C)C)n2)n1", "< 0.1 µM"],
  ["CC(C)Nc1nc(Nc2ccccc2)nc(-c2ccc(F)cc2F)n1", "< 0.1 µM"]
]}

* * *

Target: IDH2 R140Q (Homo sapiens, UniProt P48735, R140Q)
Sequence (P48735 40-452 R140Q): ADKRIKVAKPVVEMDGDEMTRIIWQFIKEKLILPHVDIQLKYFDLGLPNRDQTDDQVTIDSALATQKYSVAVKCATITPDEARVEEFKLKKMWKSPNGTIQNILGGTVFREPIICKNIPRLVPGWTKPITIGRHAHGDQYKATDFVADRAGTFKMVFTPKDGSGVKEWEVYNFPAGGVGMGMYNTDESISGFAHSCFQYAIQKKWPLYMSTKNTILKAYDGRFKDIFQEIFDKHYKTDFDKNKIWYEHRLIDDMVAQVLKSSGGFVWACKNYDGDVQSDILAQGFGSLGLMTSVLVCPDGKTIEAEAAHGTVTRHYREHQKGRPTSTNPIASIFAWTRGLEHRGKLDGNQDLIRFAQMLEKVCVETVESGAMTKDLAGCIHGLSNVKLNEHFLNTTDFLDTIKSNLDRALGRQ
Experiment: IDH2 R140Q enzymatic assay (cofactor depletion, similar format)
Type: biochemical
Details: read-out: Enz R140Q
Procedure: [The source words this procedure for another variant and says it was used here with some conditions changed.] Compounds are assayed for IDH2 R172K inhibitory activity through a cofactor depletion assay. […] The reaction is terminated by the addition of a second enzyme, diaphorase, and a corresponding substrate, resazurin. […]
Let's look at some compounds and their measured IC50.
Experimental endpoint: IC50

{"columns": ["Compound", "Target or system", "Experimental endpoint", "Recorded result"],
 "data": [
  ["CC1(Nc2nc(Nc3ccnc(C(F)(F)F)c3)nc(-c3cccc(C(F)(F)F)n3)n2)CC1", "IDH2 R140Q (Homo sapiens, UniProt P48735, R140Q)", "IC50", "100 to 1000 nM"],
  ["CC1(Nc2nc(Nc3ccncc3)nc(-c3ccccc3)n2)COC1", "IDH2 R140Q (Homo sapiens, UniProt P48735, R140Q)", "IC50", "100 to 1000 nM"],
  ["Fc1cc(Nc2nc(NC3[C@H]4COC[C@@H]34)nc(-c3ccccc3F)n2)ccn1 (some centres unmarked)", "IDH2 R140Q (Homo sapiens, UniProt P48735, R140Q)", "IC50", "< 100 nM"],
  ["COCc1cccc(Nc2nc(NC(C)C)nc(-c3ccccc3)n2)c1", "IDH2 R140Q (Homo sapiens, UniProt P48735, R140Q)", "IC50", "< 100 nM"],
  ["c1ccc(-c2nc(NCC3CCO3)nc(Nc3ccncc3)n2)cc1 (centres unmarked)", "IDH2 R140Q (Homo sapiens, UniProt P48735, R140Q)", "IC50", "1000 to 10000 nM"],
  ["CC(C)(C)CNc1nc(Nc2ccnc(C(F)(F)F)c2)nc(-c2ccccn2)n1", "IDH2 R140Q (Homo sapiens, UniProt P48735, R140Q)", "IC50", "100 to 1000 nM"],
  ["CC(C)Nc1nc(Nc2cccc(C#N)c2)nc(-c2ccccn2)n1", "IDH2 R140Q (Homo sapiens, UniProt P48735, R140Q)", "IC50", "100 to 1000 nM"],
  ["CC(C)(C)Nc1nc(Nc2cc(F)cc(S(C)(=O)=O)c2)nc(-c2cccc(C(C)(F)F)n2)n1", "IDH2 R140Q (Homo sapiens, UniProt P48735, R140Q)", "IC50", "100 to 1000 nM"],
  ["CC(C)Nc1nc(Nc2cncc(C(F)(F)F)c2)nc(-c2cccc(Cl)n2)n1", "IDH2 R140Q (Homo sapiens, UniProt P48735, R140Q)", "IC50", "< 100 nM"],
  ["CC(C)Nc1nc(Nc2ccccc2)nc(-c2ccccc2C#N)n1", "IDH2 R140Q (Homo sapiens, UniProt P48735, R140Q)", "IC50", "< 100 nM"],
  ["COc1cc(Cl)cc(-c2nc(Nc3ccnc(C(F)(F)F)c3)nc(NC(C)C)n2)c1", "IDH2 R140Q (Homo sapiens, UniProt P48735, R140Q)", "IC50", "100 to 1000 nM"],
  ["CC(C)Nc1nc(Nc2cncnc2)nc(-c2cccc(Cl)n2)n1", "IDH2 R140Q (Homo sapiens, UniProt P48735, R140Q)", "IC50", "100 to 1000 nM"],
  ["CC(C)Nc1nc(Nc2ccon2)nc(-c2ccccc2)n1", "IDH2 R140Q (Homo sapiens, UniProt P48735, R140Q)", "IC50", "< 100 nM"],
  ["c1ccc(-c2nc(Nc3ccncc3)nc(NC3C4COCC43)n2)cc1 (centres unmarked)", "IDH2 R140Q (Homo sapiens, UniProt P48735, R140Q)", "IC50", "< 100 nM"],
  ["CC(C)(O)CNc1nc(Nc2ccnc(F)c2)nc(-c2ccccc2F)n1", "IDH2 R140Q (Homo sapiens, UniProt P48735, R140Q)", "IC50", "100 to 1000 nM"],
  ["O=C1CCC(C(=O)Nc2nc(Nc3ccccc3)nc(-c3ccccc3)n2)N1 (centres unmarked)", "IDH2 R140Q (Homo sapiens, UniProt P48735, R140Q)", "IC50", "> 10000 nM"],
  ["c1ccc(-c2nc(NCC3CCCO3)nc(Nc3ccncc3)n2)cc1 (centres unmarked)", "IDH2 R140Q (Homo sapiens, UniProt P48735, R140Q)", "IC50", "100 to 1000 nM"],
  ["CC(C)Nc1nc(Nc2cccc(S(=O)(=O)N3CCC3)c2)nc(-c2cccc(Cl)n2)n1", "IDH2 R140Q (Homo sapiens, UniProt P48735, R140Q)", "IC50", "100 to 1000 nM"],
  ["CC(C)Nc1nc(Nc2ccnc(C3CC3)c2)nc(-c2ccccc2)n1", "IDH2 R140Q (Homo sapiens, UniProt P48735, R140Q)", "IC50", "< 100 nM"],
  ["Cc1ccccc1Nc1nc(NC(C)C)nc(-c2ccccc2)n1", "IDH2 R140Q (Homo sapiens, UniProt P48735, R140Q)", "IC50", "100 to 1000 nM"],
  ["CC(C)Nc1nc(Nc2ccnc(C(F)(F)F)c2)nc(-c2ccccc2F)n1", "IDH2 R140Q (Homo sapiens, UniProt P48735, R140Q)", "IC50", "< 100 nM"],
  ["CC(C)Nc1nc(Nc2cc(F)cc(F)c2)nc(-c2nccc(N)n2)n1", "IDH2 R140Q (Homo sapiens, UniProt P48735, R140Q)", "IC50", "100 to 1000 nM"],
  ["CC(C)Nc1nc(Nc2ccnc(C(F)(F)F)c2)nc(-c2cccc(O)c2F)n1", "IDH2 R140Q (Homo sapiens, UniProt P48735, R140Q)", "IC50", "100 to 1000 nM"],
  ["CCC(C)Nc1nc(Nc2ccncc2)nc(-c2ccccc2)n1 (centres unmarked)", "IDH2 R140Q (Homo sapiens, UniProt P48735, R140Q)", "IC50", "< 100 nM"],
  ["COC(C)CNc1nc(Nc2ccnc(C(F)(F)F)c2)nc(-c2cccc(C(F)(F)F)n2)n1 (centres unmarked)", "IDH2 R140Q (Homo sapiens, UniProt P48735, R140Q)", "IC50", "100 to 1000 nM"],
  ["CC(C)(C)C(CO)Nc1nc(Nc2ccncc2)nc(-c2ccccc2)n1 (centres unmarked)", "IDH2 R140Q (Homo sapiens, UniProt P48735, R140Q)", "IC50", "> 10000 nM"],
  ["CC(C)Nc1nc(Nc2cc(Cl)cc(S(C)(=O)=O)c2)nc(-c2cccc(C(C)(F)F)n2)n1", "IDH2 R140Q (Homo sapiens, UniProt P48735, R140Q)", "IC50", "100 to 1000 nM"],
  ["CS(=O)(=O)c1cc(F)cc(Nc2nc(NCC3CC3)nc(-c3cccc(C(F)(F)F)n3)n2)c1", "IDH2 R140Q (Homo sapiens, UniProt P48735, R140Q)", "IC50", "100 to 1000 nM"],
  ["CC(C)Nc1nc(Nc2cn(C)cn2)nc(-c2ccccc2)n1", "IDH2 R140Q (Homo sapiens, UniProt P48735, R140Q)", "IC50", "> 10000 nM"],
  ["c1ccc(Nc2nc(NC3CCOC3)nc(-c3ccccc3)n2)cc1 (centres unmarked)", "IDH2 R140Q (Homo sapiens, UniProt P48735, R140Q)", "IC50", "< 100 nM"],
  ["CC(C)Nc1nc(Nc2ccc(C3CC3)nc2)nc(-c2ccccc2)n1", "IDH2 R140Q (Homo sapiens, UniProt P48735, R140Q)", "IC50", "100 to 1000 nM"],
  ["COCCNc1nc(Nc2ccccc2)nc(-c2ccccc2)n1", "IDH2 R140Q (Homo sapiens, UniProt P48735, R140Q)", "IC50", "< 100 nM"],
  ["CC(O)C(C)Nc1nc(Nc2ccnc(C(F)(F)F)c2)nc(-c2cccc(C(F)(F)F)n2)n1 (centres unmarked)", "IDH2 R140Q (Homo sapiens, UniProt P48735, R140Q)", "IC50", "100 to 1000 nM"],
  ["CC(C)Nc1nc(Nc2ccnc(CF)c2)nc(-c2cccc(C(F)(F)F)n2)n1", "IDH2 R140Q (Homo sapiens, UniProt P48735, R140Q)", "IC50", "100 to 1000 nM"],
  ["CC1(CNc2nc(Nc3ccnc(C(F)(F)F)c3)nc(-c3cccc(C(F)(F)F)n3)n2)COC1", "IDH2 R140Q (Homo sapiens, UniProt P48735, R140Q)", "IC50", "100 to 1000 nM"]
]}
